# System: BxPC3 cells
# Assay Explanation: MTT cytotoxicity assay, BxPC3 pancreatic adenocarcinoma cells
# Format: cell-based, human
# Conditions Used: ratio between IC50 of sunitinib and IC50 of tested compound, BxPC3
Property Label: Potency relative to SU (BxPC3)

                            molecule_smiles  numeric_result
0           Oc1cccc(Nc2cc(Nc3ccccc3)ncn2)c1            0.62
1             Oc1ccc(Nc2ncncc2-c2ccccc2)cc1            0.31
2           Nc1ccc(Nc2cc(Nc3ccccc3)ncn2)cc1            0.31
3  O=C(CN1CCOCC1)Nc1cccc(-c2cc(Nc3ccc(NC(=O)Nc4ccccc4)cc3)ncn2)c1               6
